B1: CD2-associated protein, residues 271 to 331; numbered along this chain, Q9Y5K6 (parent)
chain: KEYCRTLFAYEGTNEDELTFKEGEIIHLISKETGEAGWWRGELNGKEGVFPDNFAVQINEL

- Variants of: B1
- assay_protocol: abundance fitness (aPCA) (normalised: wild type 0, dead -1); higher = more abundant; growth selection in yeast, the domain comes from the species named
- condition_info: Homo sapiens
reported_endpoint: abundance fitness
Would you mind answering with just the numeric figure?

Please report the recorded abundance fitness for KEYRRTLFAYEGTNEDELTFKEGEIIHLISKETGEAGWWRGELNGKEGVFPDNFAVQINEL [C4R] . -0.62

Now consider KEYCRTLFAYEGTNEDELTFKEGEIIHLILKETGEAGWWRGELNGKEGVFPDNFAVQINEL [S30L] and answer again. -0.859

Now consider KEYCRTLFAYEGTNEDELTFKEGEIIHLISKETGEAGWWRGELNGKEGVFPDNFAVQANEL [I58A] and answer again. -0.151

Now consider KEYCRTLFAYEGTNEDELTFKEGEIIHLISKETGEAGWWRCELNGKEGVFPDNFAVQINEL [G41C] and answer again. -1.07

Now consider KEYCRTLFAYEGTNEDELTFKEGEIIHLIRKETGEAGWWRGELNGKEGVFPDNFAVQINEL [S30R] and answer again. -0.419

Now consider KEYCRTLFAYEGTNEDELTFKEGEIIHLISKETGEAGWWRGELNGKEFVFPDNFAVQINEL [G48F] and answer again. -1.05

Now consider WEYCRTLFAYEGTNEDELTFKEGEIIHLISKETGEAGWWRGELNGKEGVFPDNFAVQINEL [K1W] and answer again. -0.543

Now consider KEYCRTLFAYEGTNEDELTFKEGEIIHLISKETGEAGWWRGELNGKEGVFPDNFAHQINEL [V56H] and answer again. -0.317

Now consider KEYCRTLFAYEGTNEDELTFKEGEIIHLISKETGEAGWWRGELNGKEGVQPDNFAVQINEL [F50Q] and answer again. -0.732

Now consider KEYCRTLFAYEGTNEDELTFKEGEIIHLISKETGEAGWWRGELNGYEGVFPDNFAVQINEL [K46Y] and answer again. -0.34

Now consider KEYCRTLFANEGTNEDELTFKEGEIIHLISKETGEAGWWRGELNGKEGVFPDNFAVQINEL [Y10N] and answer again. -0.831
